The reported numbers originate from ChEMBL document CHEMBL3745613.

target: cGMP-dependent 3',5'-cyclic phosphodiesterase (Homo sapiens, UniProt O00408); assay: Inhibition of human recombinant PDE2A using cAMP as substrate preincubated for 20 mins followed by substrate addition measured after 2 hrs by FRET assay
Sequence (O00408 whole entry): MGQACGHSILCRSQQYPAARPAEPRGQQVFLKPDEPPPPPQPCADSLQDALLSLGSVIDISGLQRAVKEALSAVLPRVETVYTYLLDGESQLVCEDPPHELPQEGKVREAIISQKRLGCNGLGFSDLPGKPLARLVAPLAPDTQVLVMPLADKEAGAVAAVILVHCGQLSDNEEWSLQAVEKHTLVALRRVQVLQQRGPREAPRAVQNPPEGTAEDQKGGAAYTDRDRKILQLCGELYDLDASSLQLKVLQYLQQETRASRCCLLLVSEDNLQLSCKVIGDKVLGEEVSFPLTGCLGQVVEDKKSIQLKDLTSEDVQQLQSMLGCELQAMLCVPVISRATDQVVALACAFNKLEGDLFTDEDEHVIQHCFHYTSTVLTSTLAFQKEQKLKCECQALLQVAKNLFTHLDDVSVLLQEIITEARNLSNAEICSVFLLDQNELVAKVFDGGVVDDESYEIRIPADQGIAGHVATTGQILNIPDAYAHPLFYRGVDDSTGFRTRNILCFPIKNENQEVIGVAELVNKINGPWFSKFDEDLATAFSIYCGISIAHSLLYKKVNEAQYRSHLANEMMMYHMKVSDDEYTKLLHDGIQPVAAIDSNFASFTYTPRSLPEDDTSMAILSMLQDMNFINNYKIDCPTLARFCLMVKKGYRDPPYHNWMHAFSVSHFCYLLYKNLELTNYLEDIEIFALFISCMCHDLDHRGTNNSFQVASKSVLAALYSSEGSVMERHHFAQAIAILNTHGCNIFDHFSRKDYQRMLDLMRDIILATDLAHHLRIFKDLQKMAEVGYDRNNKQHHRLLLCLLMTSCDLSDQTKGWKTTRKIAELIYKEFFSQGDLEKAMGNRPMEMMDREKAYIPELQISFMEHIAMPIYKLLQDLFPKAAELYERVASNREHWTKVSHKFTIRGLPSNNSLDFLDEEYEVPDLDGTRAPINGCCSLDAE
Measured IC50 accompanies every entry in the list below.

Task: Look up and state reported IC50 for Cc1c(Cl)cccc1C(=O)Nc1ncc(-c2nc3ccccc3n2C)s1
Output: > 100 µM

Task: Look up and state reported IC50 for Cc1c(Cl)cccc1C(=O)Nc1cc(-c2nc3ccccc3[nH]2)[nH]n1
Output: > 100 µM

Lab note: next compound to report on.
Task: Look up and state reported IC50 for N#Cc1cccc(C(=O)Nc2ncc(-c3nc4ccccc4[nH]3)s2)c1
Output: > 100 µM
